Reported YAP1 (% UTC) values are given for each entry in this list.
system: Yap1 mRNA; assay: Antisense inhibition of human Yap1 in A-431 cells by cEt gapmers, single dose (Example 2, RTS4814); assay type: cell-based; details: A-431 cells, 5,000 cells per well, free uptake, 2,000 nM modified oligonucleotide, approx. 48 hours, RTS4814, normalized to RIBOGREEN; Table 4; asterisk (*) = targets amplicon region of primer probe set
Strand notation (5' to 3'): a small letter for the sugar, then the base; units joined by * are phosphorothioate-linked, units joined directly phosphodiester-linked; [ ] holds rarer units or linkages, { } end groups; capitals alone tell only the bases. k = constrained ethyl (cEt); [5mC] = 5-methylcytosine; d = 2'-deoxy (DNA)

[
  {
    "substance": "716406 (kA*k[5mC]*kT*d[5mC]*dT*d[5mC]*dA*dT*d[5mC]*dT*d[5mC]*dG*dA*kG*kA*kG; antisense) [Compound 716406]",
    "YAP1 (% UTC)": "117 % UTC"
  },
  {
    "substance": "716505 (antisense kG*kA*kT*dT*dT*dA*dA*dT*d[5mC]*dT*dT*dT*d[5mC]*kT*kG*k[5mC]) [Compound 716505]",
    "YAP1 (% UTC)": "35 % UTC"
  },
  {
    "substance": "716355 (kG*kA*k[5mC]*dG*dG*d[5mC]*dT*dG*d[5mC]*dG*dG*dG*d[5mC]*k[5mC]*kG*kG; antisense) [Compound 716355]",
    "YAP1 (% UTC)": "96 % UTC"
  },
  {
    "substance": "716514 (antisense kG*k[5mC]*kT*dG*dA*dT*dA*dT*dA*dT*dA*dA*dG*kA*kT*kA) [Compound 716514]",
    "YAP1 (% UTC)": "68 % UTC"
  },
  {
    "substance": "716463 (kG*kA*k[5mC]*dT*dG*d[5mC]*d[5mC]*d[5mC]*d[5mC]*dA*dA*d[5mC]*d[5mC]*kA*kG*kA; antisense) [Compound 716463]",
    "YAP1 (% UTC)": "64 % UTC"
  },
  {
    "substance": "716538 (antisense kT*k[5mC]*kT*dG*dA*dA*dA*d[5mC]*dT*d[5mC]*d[5mC]*dA*dA*kA*kT*k[5mC]) [Compound 716538]",
    "YAP1 (% UTC)": "77 % UTC"
  },
  {
    "substance": "716577 (kT*k[5mC]*kT*dG*dT*d[5mC]*dA*dG*dT*dT*dA*dT*d[5mC]*k[5mC]*kT*kA; antisense) [Compound 716577]",
    "YAP1 (% UTC)": "21 % UTC"
  },
  {
    "substance": "716547 (kG*kG*kT*dA*dT*dG*dA*dA*dT*dT*d[5mC]*dT*dG*kA*kA*kT; antisense) [Compound 716547]",
    "YAP1 (% UTC)": "44 % UTC"
  },
  {
    "substance": "716424 (kG*k[5mC]*kA*dA*dT*dG*dG*dA*d[5mC]*dA*dA*dG*dG*kA*kA*kG; antisense) [Compound 716424]",
    "YAP1 (% UTC)": "25 % UTC"
  },
  {
    "substance": "716430 (kT*kA*kA*d[5mC]*dT*dG*dG*dG*d[5mC]*dA*dA*dA*dA*kG*kG*kA; antisense) [Compound 716430]",
    "YAP1 (% UTC)": "28 % UTC"
  },
  {
    "substance": "716472 (kG*kT*k[5mC]*dA*dT*dG*d[5mC]*dA*d[5mC]*dA*dT*dT*dA*kT*kG*kA; antisense) [Compound 716472]",
    "YAP1 (% UTC)": "78 % UTC"
  },
  {
    "substance": "716397 (kG*kG*k[5mC]*d[5mC]*dT*d[5mC]*dA*d[5mC]*d[5mC]*dT*dG*d[5mC]*d[5mC]*kG*kA*kA; antisense) [Compound 716397]",
    "YAP1 (% UTC)": "88 % UTC"
  },
  {
    "substance": "716511 (antisense kG*kA*kT*d[5mC]*dT*dT*d[5mC]*dT*dG*d[5mC]*dA*d[5mC]*dA*kT*kT*kA) [Compound 716511]",
    "YAP1 (% UTC)": "51 % UTC"
  },
  {
    "substance": "716523 (antisense k[5mC]*kA*kA*dA*dT*dT*dA*dA*dA*dG*dT*dT*dG*kA*kG*kG) [Compound 716523]",
    "YAP1 (% UTC)": "37 % UTC"
  },
  {
    "substance": "716466 (kG*kT*kG*dG*dA*dG*d[5mC]*dA*d[5mC]*dT*d[5mC]*d[5mC]*d[5mC]*k[5mC]*kT*kA; antisense) [Compound 716466]",
    "YAP1 (% UTC)": "58 % UTC"
  },
  {
    "substance": "716469 (kG*kT*kT*dT*dG*d[5mC]*dT*d[5mC]*d[5mC]*dT*dT*dT*d[5mC]*k[5mC]*kA*kA; antisense) [Compound 716469]",
    "YAP1 (% UTC)": "25 % UTC"
  },
  {
    "substance": "716526 (antisense kT*k[5mC]*kA*dA*dA*dG*d[5mC]*dA*d[5mC]*dT*dG*dT*dG*k[5mC]*k[5mC]*kA) [Compound 716526]",
    "YAP1 (% UTC)": "88 % UTC"
  },
  {
    "substance": "716415 (kA*kG*k[5mC]*dT*d[5mC]*d[5mC]*dT*d[5mC]*dT*d[5mC]*d[5mC]*dT*dT*k[5mC]*kT*kA; antisense) [Compound 716415]",
    "YAP1 (% UTC)": "90 % UTC"
  },
  {
    "substance": "716574 (kT*kA*k[5mC]*dA*d[5mC]*dT*dG*dT*dA*dT*dA*dT*dG*kT*kT*k[5mC]; antisense) [Compound 716574]",
    "YAP1 (% UTC)": "91 % UTC"
  },
  {
    "substance": "716490 (kA*k[5mC]*kA*dA*d[5mC]*d[5mC]*dA*dA*d[5mC]*dT*dA*dT*dT*kA*k[5mC]*kT; antisense) [Compound 716490]",
    "YAP1 (% UTC)": "63 % UTC"
  },
  {
    "substance": "716361 (kG*kG*kT*dT*dG*dA*dG*dG*d[5mC]*dG*dG*d[5mC]*dG*kG*k[5mC]*kT; antisense) [Compound 716361]",
    "YAP1 (% UTC)": "75 % UTC"
  },
  {
    "substance": "716358 (k[5mC]*kG*kA*dG*dG*dG*d[5mC]*dT*dA*d[5mC]*dG*d[5mC]*d[5mC]*k[5mC]*kG*kG; antisense) [Compound 716358]",
    "YAP1 (% UTC)": "104 % UTC"
  },
  {
    "substance": "716427 (kA*kG*k[5mC]*d[5mC]*d[5mC]*d[5mC]*d[5mC]*dA*dA*dA*dA*dT*dG*kA*kA*k[5mC]; antisense) [Compound 716427]",
    "YAP1 (% UTC)": "86 % UTC"
  },
  {
    "substance": "716403 (k[5mC]*k[5mC]*kG*dG*dG*dA*dG*dA*dA*dG*dA*d[5mC]*dA*k[5mC]*kT*kG; antisense) [Compound 716403]",
    "YAP1 (% UTC)": "110 % UTC"
  }
]
